- tested on: IgE antibodies of the individual allergic patient serum II/12
- assay notes: EAST inhibition, individual serum II/12
Could you please report measured allergenic potency (Prel) at 25% inhibition (relative to native Phl p 5b) for the items listed next?
Keep it simple and answer with nothing but the number.

query: Give a short answer stating reported allergenic potency (Prel) at 25% inhibition (relative to native Phl p 5b) for rPhl p 5b point mutant PM3 (A13C) (protein) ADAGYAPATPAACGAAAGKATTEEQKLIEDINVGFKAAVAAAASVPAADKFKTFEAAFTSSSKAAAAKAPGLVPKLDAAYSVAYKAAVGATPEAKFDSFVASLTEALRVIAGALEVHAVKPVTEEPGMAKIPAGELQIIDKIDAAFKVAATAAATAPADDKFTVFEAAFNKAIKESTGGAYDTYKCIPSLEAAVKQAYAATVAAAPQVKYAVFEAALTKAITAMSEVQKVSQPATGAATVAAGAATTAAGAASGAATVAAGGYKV .
result: 0.389

query: Tell me allergenic potency (Prel) at 25% inhibition (relative to native Phl p 5b) reported for recombinant Phl p 5b (wild type) (protein) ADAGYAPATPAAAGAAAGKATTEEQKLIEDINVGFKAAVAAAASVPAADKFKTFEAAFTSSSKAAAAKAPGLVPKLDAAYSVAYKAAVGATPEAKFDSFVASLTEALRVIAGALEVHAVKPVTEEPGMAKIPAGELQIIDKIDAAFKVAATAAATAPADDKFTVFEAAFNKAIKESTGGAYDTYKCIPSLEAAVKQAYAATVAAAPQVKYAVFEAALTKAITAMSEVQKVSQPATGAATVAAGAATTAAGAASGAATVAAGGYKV
result: 0.597

query: Please report allergenic potency (Prel) at 25% inhibition (relative to native Phl p 5b) for the following binder: rPhl p 5b deletion mutant DM1 (deletion K50-P132, D49L) (protein) ADAGYAPATPAAAGAAAGKATTEEQKLIEDINVGFKAAVAAAASVPAALAGELQIIDKIDAAFKVAATAAATAPADDKFTVFEAAFNKAIKESTGGAYDTYKCIPSLEAAVKQAYAATVAAAPQVKYAVFEAALTKAITAMSEVQKVSQPATGAATVAAGAATTAAGAASGAATVAAGGYKV
result: 3.4e-05

Recorded values, source patent US6919086B1.
